test system: HL-60 (Human promyelocytic leukemia); assay: MTT in vitro cytotoxicity assay, HL-60; format: cell-based; conditions: Homo sapiens
Could you mark each record condition met if its IC50 falls strictly under 60 µM, and condition not met if it equals or exceeds it?

As a guide, the following entries are already answered.
[[record]]
compound = "CCOC(=O)C1=C(C)N(c2nc(Nc3cccc(Br)c3)nc(Nc3cccc(Br)c3)n2)C(=S)NC1c1ccccc1O (stereo not shown) [7e]"
label_class = "condition met"

[[record]]
compound = "CCOC(=O)C1=C(C)N(c2nc(Nc3cccc(Cl)c3)nc(Nc3cccc(Cl)c3)n2)C(=S)NC1c1ccc(O)cc1 (stereo not shown) [7d]"
label_class = "condition met"

[[record]]
compound = "CCOC(=O)C1=C(C)N(c2nc(Nc3cccc(Br)c3)nc(Nc3cccc(Br)c3)n2)C(=S)NC1c1ccc([N+](=O)[O-])cc1 (stereo not shown) [7k]"
label_class = "condition met"

[[record]]
compound = "CCOC(=O)C1=C(C)N(c2nc(Nc3ccc(C)cc3)nc(Nc3ccc(C)cc3)n2)C(=S)NC1c1ccc(O)cc1 (stereo not shown) [7o]"
label_class = "condition not met"


Given CCOC(=O)C1=C(C)N(c2nc(Nc3ccccc3[N+](=O)[O-])nc(Nc3ccccc3[N+](=O)[O-])n2)C(=S)NC1c1ccc(C)cc1 (stereo not shown) [7c] , is recorded IC50 strictly lower than 60 µM?
condition not met

IC50 under 60 µM? Item: CCOC(=O)C1=C(C)N(c2nc(Nc3cccc(Cl)c3)nc(Nc3cccc(Cl)c3)n2)C(=S)NC1c1ccc(F)cc1 (stereo not shown) [7m]
condition met
